Taken from patent US20240400718A1.

target: #628: VH-L2-VL CAR-T; experiment: flow cytometry on CAR-T cells; PE-labeled secondary antibody; PE-positive cells / total cells
test.readout: Reactivity (%)
API: value field is a number in %; no unit string.

{"binder": "2D12-B12 (antibody, V domains shown) VH: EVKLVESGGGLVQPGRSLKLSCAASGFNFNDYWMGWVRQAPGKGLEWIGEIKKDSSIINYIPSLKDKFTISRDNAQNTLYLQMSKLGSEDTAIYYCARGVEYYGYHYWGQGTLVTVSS VL: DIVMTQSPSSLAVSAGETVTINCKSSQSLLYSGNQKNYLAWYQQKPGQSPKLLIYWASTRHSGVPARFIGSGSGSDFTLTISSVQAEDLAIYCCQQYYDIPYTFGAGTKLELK", "readout.units": "%", "Reactivity (%)": 0.2}
{"binder": "3A4-A10-7 (antibody, V domains shown) VH: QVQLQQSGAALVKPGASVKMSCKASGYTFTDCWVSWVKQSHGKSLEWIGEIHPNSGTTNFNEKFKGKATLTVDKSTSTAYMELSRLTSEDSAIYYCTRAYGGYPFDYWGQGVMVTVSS VL: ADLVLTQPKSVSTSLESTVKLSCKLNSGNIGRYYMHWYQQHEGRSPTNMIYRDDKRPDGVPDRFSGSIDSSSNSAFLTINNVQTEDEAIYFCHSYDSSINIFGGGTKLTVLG", "readout.units": "%", "Reactivity (%)": 0.1}

# input Determine its reported Reactivity (%): 3E7-C1 (antibody, V domains shown) VH: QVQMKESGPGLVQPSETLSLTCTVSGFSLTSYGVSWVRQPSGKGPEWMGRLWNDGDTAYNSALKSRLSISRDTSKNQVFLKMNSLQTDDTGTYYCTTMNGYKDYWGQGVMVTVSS VL: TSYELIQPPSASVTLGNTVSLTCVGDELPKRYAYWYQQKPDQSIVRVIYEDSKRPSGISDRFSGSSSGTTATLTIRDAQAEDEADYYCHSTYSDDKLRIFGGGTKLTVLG
# output 0

# input Look up and state reported Reactivity (%) for 4B9-B11 (antibody, V domains shown) VH: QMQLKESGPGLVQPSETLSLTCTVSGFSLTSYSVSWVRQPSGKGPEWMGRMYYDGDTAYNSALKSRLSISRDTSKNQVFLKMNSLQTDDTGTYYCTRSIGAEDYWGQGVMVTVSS VL: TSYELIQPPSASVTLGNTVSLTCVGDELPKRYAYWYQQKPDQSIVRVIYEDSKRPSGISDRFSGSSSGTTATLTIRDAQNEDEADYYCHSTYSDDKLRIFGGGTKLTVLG
# output 0.2
